Molecular target: human Nav1.7 (Homo sapiens)
Construct: expressed in transfected cells; host or cells: HEK 293
Sequence (Q15858 whole entry): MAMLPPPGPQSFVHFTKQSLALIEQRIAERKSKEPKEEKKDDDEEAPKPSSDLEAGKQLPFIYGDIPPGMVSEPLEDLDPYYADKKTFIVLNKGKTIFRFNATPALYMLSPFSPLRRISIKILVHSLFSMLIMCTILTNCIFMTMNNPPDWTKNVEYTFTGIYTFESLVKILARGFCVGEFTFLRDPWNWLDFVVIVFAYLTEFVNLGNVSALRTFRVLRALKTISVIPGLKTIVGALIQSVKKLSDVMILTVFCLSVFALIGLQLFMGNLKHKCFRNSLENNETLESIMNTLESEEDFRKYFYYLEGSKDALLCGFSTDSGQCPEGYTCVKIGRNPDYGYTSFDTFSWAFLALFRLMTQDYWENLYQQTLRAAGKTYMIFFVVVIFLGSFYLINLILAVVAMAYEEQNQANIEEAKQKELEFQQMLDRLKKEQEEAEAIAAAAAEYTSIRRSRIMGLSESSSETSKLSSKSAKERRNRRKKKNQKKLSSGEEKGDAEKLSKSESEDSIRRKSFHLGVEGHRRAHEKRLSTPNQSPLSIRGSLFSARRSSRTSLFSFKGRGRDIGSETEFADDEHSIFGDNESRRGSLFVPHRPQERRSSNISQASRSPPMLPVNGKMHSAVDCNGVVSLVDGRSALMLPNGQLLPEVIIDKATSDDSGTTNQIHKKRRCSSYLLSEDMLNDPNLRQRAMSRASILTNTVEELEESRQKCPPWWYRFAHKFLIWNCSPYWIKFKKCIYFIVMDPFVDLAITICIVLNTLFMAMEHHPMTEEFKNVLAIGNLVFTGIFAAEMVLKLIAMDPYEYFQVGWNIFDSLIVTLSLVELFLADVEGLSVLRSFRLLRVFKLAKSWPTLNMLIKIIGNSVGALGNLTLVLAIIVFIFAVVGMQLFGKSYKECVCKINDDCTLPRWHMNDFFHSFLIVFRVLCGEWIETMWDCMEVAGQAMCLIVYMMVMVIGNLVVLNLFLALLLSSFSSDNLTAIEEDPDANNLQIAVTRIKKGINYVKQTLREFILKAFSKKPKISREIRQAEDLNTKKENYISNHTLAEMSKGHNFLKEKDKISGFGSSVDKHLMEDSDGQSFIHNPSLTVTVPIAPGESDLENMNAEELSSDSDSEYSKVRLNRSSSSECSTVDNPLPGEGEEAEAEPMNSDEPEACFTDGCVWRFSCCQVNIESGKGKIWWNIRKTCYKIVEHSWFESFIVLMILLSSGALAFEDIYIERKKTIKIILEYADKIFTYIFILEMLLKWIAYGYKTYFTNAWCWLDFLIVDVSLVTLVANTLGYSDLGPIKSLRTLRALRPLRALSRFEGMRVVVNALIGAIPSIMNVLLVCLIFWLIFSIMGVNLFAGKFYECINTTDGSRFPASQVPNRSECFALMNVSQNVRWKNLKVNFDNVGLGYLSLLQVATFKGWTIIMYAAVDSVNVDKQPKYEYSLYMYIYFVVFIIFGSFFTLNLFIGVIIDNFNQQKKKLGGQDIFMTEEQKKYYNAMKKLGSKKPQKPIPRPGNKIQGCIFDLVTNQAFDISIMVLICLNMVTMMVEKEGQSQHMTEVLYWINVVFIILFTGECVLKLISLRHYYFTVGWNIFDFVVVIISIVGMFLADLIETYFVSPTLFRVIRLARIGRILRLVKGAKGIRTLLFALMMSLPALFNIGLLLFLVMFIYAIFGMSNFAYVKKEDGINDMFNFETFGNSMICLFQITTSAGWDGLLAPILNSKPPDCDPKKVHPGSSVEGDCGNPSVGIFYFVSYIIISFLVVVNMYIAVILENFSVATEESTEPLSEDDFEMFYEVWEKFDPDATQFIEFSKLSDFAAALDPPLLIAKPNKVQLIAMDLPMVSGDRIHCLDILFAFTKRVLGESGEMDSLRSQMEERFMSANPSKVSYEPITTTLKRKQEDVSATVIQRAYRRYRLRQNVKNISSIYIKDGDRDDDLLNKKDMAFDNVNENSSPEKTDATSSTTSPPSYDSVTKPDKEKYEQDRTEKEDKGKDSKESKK
Test: IonWorks Quattro automated patch-clamp, inactivated state block of Nav1.7
Type: cell-based
Conditions: channels stably expressed in HEK 293 cells; double-pulse protocol, inactivated state block; read-out: potency for the Nav 1.7 sodium ion channel (IC50, as measured by IonWorks)
Catalogue of pIC50 values
Answer as the number alone; pIC50 is minus log10 of concentration in mol/L.

* O=S(=O)(Nc1ncc(Cl)s1)c1cc(Cl)c(NCCCCNC[C@@H]2CCCN2)cc1F [Ex 7-9] | 7.54
* C[C@H](CCN)NCCCCNc1cc(F)c(S(=O)(=O)Nc2nccs2)cc1Cl [Ex 16-26] | 7.55
* CC1(NCCCCNc2cc(F)c(S(=O)(=O)Nc3ncns3)cc2Br)CCNC1 (stereo not drawn) [Ex 16-96] | 7.82
* C[C@H](CN)NCCCCNc1cc(F)c(S(=O)(=O)Nc2ncns2)cc1Cl [Ex 16-60] | 7.96
* N[C@@H]1CCC[C@H]1NCCCCNc1cc(F)c(S(=O)(=O)Nc2ncns2)cc1Br [Ex 16-94] | 8.14

Dear colleague, I am looking for the recorded pIC50 of the following molecule: O=S(=O)(Nc1nccs1)c1cc(Cl)c(NCCCCNC[C@H]2CCN2)cc1F [Ex 16-75]
7.39

Any idea what pIC50 was measured for CNCCCNCCCCNc1cc(F)c(S(=O)(=O)Nc2nccs2)cc1Br [Ex 16-55] ?
7.74

// returns reported pIC50 for input CN(CCN)CCCCNc1cc(F)c(S(=O)(=O)Nc2nccs2)cc1Cl [Ex 1-15]
7.54

Using the record for N[C@@H]1CCC[C@@H]1NCCCCNc1cc(F)c(S(=O)(=O)Nc2nccs2)cc1Cl [Ex 1-29] , report its pIC50.
7.28

---

Biological target: human Nav1.5 (Homo sapiens, UniProt Q14524)
Construct: expressed in transfected cells; host or cells: HEK 293
Sequence (Q14524 whole entry): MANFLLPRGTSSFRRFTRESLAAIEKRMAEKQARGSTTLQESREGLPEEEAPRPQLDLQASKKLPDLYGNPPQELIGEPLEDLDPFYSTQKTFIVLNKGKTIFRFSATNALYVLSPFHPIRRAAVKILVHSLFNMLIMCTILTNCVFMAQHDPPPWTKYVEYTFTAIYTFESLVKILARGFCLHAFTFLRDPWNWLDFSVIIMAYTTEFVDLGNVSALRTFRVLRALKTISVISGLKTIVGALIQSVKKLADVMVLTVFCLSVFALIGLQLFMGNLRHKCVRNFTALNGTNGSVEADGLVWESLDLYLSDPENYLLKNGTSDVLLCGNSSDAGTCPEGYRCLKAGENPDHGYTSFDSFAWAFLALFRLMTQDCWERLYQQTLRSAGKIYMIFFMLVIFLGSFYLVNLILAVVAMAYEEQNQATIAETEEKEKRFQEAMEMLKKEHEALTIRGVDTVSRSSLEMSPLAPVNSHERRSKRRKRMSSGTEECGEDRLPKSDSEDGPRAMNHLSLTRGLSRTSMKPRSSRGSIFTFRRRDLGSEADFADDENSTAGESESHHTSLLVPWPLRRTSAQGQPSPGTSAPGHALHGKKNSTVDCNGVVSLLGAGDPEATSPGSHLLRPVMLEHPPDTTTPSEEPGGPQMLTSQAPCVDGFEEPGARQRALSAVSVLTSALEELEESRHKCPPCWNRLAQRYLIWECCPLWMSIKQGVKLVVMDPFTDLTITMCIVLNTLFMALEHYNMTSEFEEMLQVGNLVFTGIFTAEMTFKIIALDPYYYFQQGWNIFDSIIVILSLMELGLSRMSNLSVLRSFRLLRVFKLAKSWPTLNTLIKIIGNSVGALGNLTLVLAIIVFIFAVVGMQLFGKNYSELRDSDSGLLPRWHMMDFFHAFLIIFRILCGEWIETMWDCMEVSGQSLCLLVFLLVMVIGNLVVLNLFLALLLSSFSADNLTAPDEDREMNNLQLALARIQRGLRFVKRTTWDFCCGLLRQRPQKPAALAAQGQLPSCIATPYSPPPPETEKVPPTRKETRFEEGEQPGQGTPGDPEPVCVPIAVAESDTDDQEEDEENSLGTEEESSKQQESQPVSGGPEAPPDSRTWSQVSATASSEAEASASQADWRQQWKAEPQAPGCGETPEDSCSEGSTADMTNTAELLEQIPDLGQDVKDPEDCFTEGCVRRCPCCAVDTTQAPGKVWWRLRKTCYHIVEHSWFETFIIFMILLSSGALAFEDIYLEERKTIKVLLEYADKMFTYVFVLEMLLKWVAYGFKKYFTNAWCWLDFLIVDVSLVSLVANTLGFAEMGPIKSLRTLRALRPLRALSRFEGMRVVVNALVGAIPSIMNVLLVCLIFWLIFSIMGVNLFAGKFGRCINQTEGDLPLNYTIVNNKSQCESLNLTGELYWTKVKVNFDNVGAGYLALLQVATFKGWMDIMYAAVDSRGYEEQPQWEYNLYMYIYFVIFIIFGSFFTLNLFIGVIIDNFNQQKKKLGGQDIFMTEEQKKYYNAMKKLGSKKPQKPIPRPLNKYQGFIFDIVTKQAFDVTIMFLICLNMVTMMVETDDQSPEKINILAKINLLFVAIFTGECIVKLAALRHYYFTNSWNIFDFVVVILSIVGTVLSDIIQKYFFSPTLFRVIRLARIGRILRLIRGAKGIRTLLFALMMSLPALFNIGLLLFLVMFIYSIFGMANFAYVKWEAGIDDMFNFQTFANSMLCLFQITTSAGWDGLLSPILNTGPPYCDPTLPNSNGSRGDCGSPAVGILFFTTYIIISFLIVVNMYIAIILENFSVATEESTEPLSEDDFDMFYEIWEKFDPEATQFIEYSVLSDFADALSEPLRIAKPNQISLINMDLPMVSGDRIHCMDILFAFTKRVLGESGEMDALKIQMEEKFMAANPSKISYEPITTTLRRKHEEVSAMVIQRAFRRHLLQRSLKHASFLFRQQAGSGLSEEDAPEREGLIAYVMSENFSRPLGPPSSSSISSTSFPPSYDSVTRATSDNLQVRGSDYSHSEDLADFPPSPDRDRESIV
Experiment: IonWorks Quattro automated patch-clamp, Nav1.5 (selectivity against Nav1.7)
Type: cell-based
Conditions: IonWorks measurement, HEK 293 cells, inactivated state block
endpoint: ratio of Nav 1.7 potency:Nav 1.5 potency

• C[C@H](N)CNCCCCNc1cc(F)c(S(=O)(=O)Nc2ncns2)cc1Br = > 10600
• N[C@H]1CCC[C@@H]1NCCCCNc1cc(F)c(S(=O)(=O)Nc2ncc(F)s2)cc1Cl = > 4710
• O=S(=O)(Nc1ncns1)c1cc(Cl)c(NCCCCNC[C@H]2CCCN2)cc1F = > 3980

What value of measured ratio of Nav 1.7 potency:Nav 1.5 potency is listed for NC1CCC1NCCCCNc1cc(F)c(S(=O)(=O)Nc2ncns2)cc1Cl (stereo not shown) [Ex 16-81] ?
> 6700

---

Overview of reported IC50 across a group of molecules:
Target: human Nav1.7 (Homo sapiens)
Construct: expressed in transfected cells; host or cells: HEK 293
Test: IonWorks Quattro automated patch-clamp, inactivated state block of Nav1.7
Assay type: cell-based
Settings: channels stably expressed in HEK 293 cells; double-pulse protocol, inactivated state block; read-out: potency for the Nav 1.7 sodium ion channel (IC50, as measured by IonWorks)
Don't forget the unit after the value.

A selection of reference data follows.
- O=S(=O)(Nc1ncc(F)s1)c1cc(Cl)c(NCCCCNC[C@H]2CCN2)cc1F: 19 nM
- N[C@H]1CCCC[C@H]1NCCCCNc1cc(F)c(S(=O)(=O)Nc2nccs2)cc1Cl: 19 nM
- O=S(=O)(Nc1ncc(F)s1)c1cc(Br)c(NCCCCNC[C@H]2CCCCN2)cc1F: 11 nM

Moving on to another molecule below.
Which value of IC50 has been reported for C[C@@H](CN)NCCCCNc1cc(F)c(S(=O)(=O)Nc2ncns2)cc1Cl in the records?
16 nM

---

Target: human Nav1.5 (Homo sapiens)
Construct: expressed in transfected cells; host or cells: HEK 293
Experiment: IonWorks Quattro automated patch-clamp, Nav1.5 (selectivity against Nav1.7)
Assay type: cell-based
Details: IonWorks measurement, HEK 293 cells, inactivated state block
Readings of ratio of Nav 1.7 potency:Nav 1.5 potency for the listed compounds

Answered examples (3):
- O=S(=O)(Nc1ncc(F)s1)c1cc(Cl)c(NCCCCNC2CNC2)cc1F [Ex 16-22]: > 868
- C[C@@H](N)CNCCCCNc1cc(F)c(S(=O)(=O)Nc2ncc(F)s2)cc1Cl [Ex 16-06]: > 4070
- C[C@H](NCCCCNc1cc(F)c(S(=O)(=O)Nc2nccs2)cc1Cl)[C@@H]1CCCN1 [Ex 1-27]: > 1070

Below: the item to evaluate.
Form field - read-out: ratio of Nav 1.7 potency:Nav 1.5 potency; system: human Nav1.5 (Homo sapiens); submitted item: CNCCNCCCCNc1cc(F)c(S(=O)(=O)Nc2ncns2)cc1Cl [Ex 16-48]
> 3750

---

// IC50 lookup, one value per entry
Molecular target: human Nav1.7 (Homo sapiens)
Construct: expressed in transfected cells; host or cells: HEK 293
Assay: IonWorks Quattro automated patch-clamp, inactivated state block of Nav1.7
Type: cell-based
Conditions: channels stably expressed in HEK 293 cells; double-pulse protocol, inactivated state block; read-out: potency for the Nav 1.7 sodium ion channel (IC50, as measured by IonWorks)
Numeric only. Scale: nM

A selection of reference data follows.
• O=S(=O)(Nc1ncc(F)s1)c1cc(Br)c(NCCCCN[C@@H]2CCNC2)cc1F = 15
• O=S(=O)(Nc1nccs1)c1cc(Cl)c(NCCCCNC[C@H]2CCCCN2)cc1F = 10

Name the reported IC50 value associated with the compound O=S(=O)(Nc1nccs1)c1cc(Br)c(NCCCCNC[C@@H]2CCCN2)cc1F
16

Requested field: IC50. Item: NCCNCCCCNc1cc(F)c(S(=O)(=O)Nc2ncns2)cc1Cl
12

Which IC50 is listed for O=S(=O)(Nc1ncc(F)s1)c1cc(Cl)c(NCCCCNC[C@H]2CCCCN2)cc1F ?
8.7

Which IC50 value belongs to NCC1(NCCCCNc2cc(F)c(S(=O)(=O)Nc3ncns3)cc2Br)CC1 ?
8.6

# lookup: IC50 of O=S(=O)(Nc1nccs1)c1cc(Cl)c(NCCCCNC[C@H]2CCCN2)cc1F
34

Request the reported IC50 associated with O=S(=O)(Nc1nccs1)c1cc(Cl)c(NCCCCNCC[C@H]2CCCN2)cc1F
39

---

Let's look at some molecules and their measured ratio of Nav 1.7 potency:Nav 1.5 potency.
Molecular target: human Nav1.5 (Homo sapiens, UniProt Q14524)
Construct: expressed in transfected cells; host or cells: HEK 293
Assay: IonWorks Quattro automated patch-clamp, Nav1.5 (selectivity against Nav1.7)
Type: cell-based
Details: IonWorks measurement, HEK 293 cells, inactivated state block

Recorded results for 2 molecules are shown here.
- C[C@H](CCN)NCCCCNc1cc(F)c(S(=O)(=O)Nc2ncc(F)s2)cc1Cl: > 1270
- C[C@@H](N)CNCCCCNc1cc(F)c(S(=O)(=O)Nc2ncns2)cc1Br: 3900

Turning to the following molecule.
Bench note: what ratio of Nav 1.7 potency:Nav 1.5 potency did O=S(=O)(Nc1ncns1)c1cc(Cl)c(NCCCCNCC[C@@H]2CCCN2)cc1F show?
> 1046

---

Entries and their measured IC50 follow.
Biological target: human Nav1.7 (Homo sapiens)
Construct: expressed in transfected cells; host or cells: HEK 293
Assay: IonWorks Quattro automated patch-clamp, inactivated state block of Nav1.7
Assay type: cell-based
Conditions: channels stably expressed in HEK 293 cells; double-pulse protocol, inactivated state block; read-out: potency for the Nav 1.7 sodium ion channel (IC50, as measured by IonWorks)
The reply should contain only the number, in nM.

• C[C@H](N)CNCCCCNc1cc(F)c(S(=O)(=O)Nc2ncns2)cc1Br = 3.1
• CNCCCNCCCCNc1cc(F)c(S(=O)(=O)Nc2ncc(F)s2)cc1Cl = 25
• O=S(=O)(Nc1nccs1)c1cc(Cl)c(NCCCCNC[C@@H]2CCCCN2)cc1F = 9.6
• O=S(=O)(Nc1ncns1)c1cc(Cl)c(NCCCCNC[C@@H]2CCCN2)cc1F = 10
• NCCNCCCCNc1cc(F)c(S(=O)(=O)Nc2ncc(F)s2)cc1Cl = 7.5
• O=S(=O)(Nc1ncns1)c1cc(Cl)c(NCCCCNC[C@@H]2CCN2)cc1F = 14

I would be grateful if you could share the reported IC50 for C[C@H](NCCCCNc1cc(F)c(S(=O)(=O)Nc2nccs2)cc1Cl)[C@@H]1CCCN1 .
31

Sample CC(C)(CCN)NCCCCNc1cc(F)c(S(=O)(=O)Nc2ncc(F)s2)cc1Cl — what was its IC50?
19

# query: IC50 of entry O=S(=O)(Nc1ncc(F)s1)c1cc(Cl)c(NCCCCNC2CNC2)cc1F
38

Recorded IC50 for O=S(=O)(Nc1ncns1)c1cc(Cl)c(NCCCCN[C@@H]2CCNC2)cc1F , please?
11

Sample O=S(=O)(Nc1ncc(F)s1)c1cc(Cl)c(NCCCCNCC[C@@H]2CCCN2)cc1F — what was its IC50?
21

What value of IC50 has been recorded for this entry: CC(C)C[C@@H](CNCCCCNc1cc(F)c(S(=O)(=O)Nc2ncns2)cc1Cl)[C@@H](C)N
4.5

// lookup IC50 for O=S(=O)(Nc1nccs1)c1cc(Cl)c(NCCCCNCC2CNC2)cc1F
34

IC50 for CNCCNCCCCNc1cc(F)c(S(=O)(=O)Nc2ncns2)cc1Br ?
5.1

Need IC50 of NC1CCC1NCCCCNc1cc(F)c(S(=O)(=O)Nc2ncns2)cc1Cl (stereo not drawn) [Ex 16-81] , thanks.
4.9

This collection of values is drawn from patent US10519147B2.
